# %-Tmax per record follows
- PROTOCOL_TEXT: Intranasal PK profiles of conjugated oxymorphone in rats (released oxymorphone in plasma by LC-MS/MS)
- Format: in vivo
- CONDITION: 0.2 mg/kg oxymorphone equivalent, relative to the OM control
Numeric answer only, unit % assumed.

{"COMPOUND": "CN1CC[C@]23c4c5ccc(O)c4O[C@H]2C(OC(=O)c2ccccc2)=CC[C@@]3(O)[C@H]1C5 [Conjugate 6-Bz-OM]", "ASSAY_METRIC": "%-Tmax", "DATA_VALUE": 100}
{"COMPOUND": "CN1CC[C@]23c4c5ccc(O)c4O[C@H]2C(OC(=O)c2cc(-c4ccc(F)cc4F)ccc2O)=CC[C@@]3(O)[C@H]1C5", "ASSAY_METRIC": "%-Tmax", "DATA_VALUE": 100}

Now examine the next entry.
Noted for CN1CC[C@]23c4c5ccc(OC(=O)c6ccccc6O)c4O[C@H]2C(=O)CC[C@@]3(O)[C@H]1C5 : its %-Tmax reads 100
